Recorded values, source ChEMBL document CHEMBL6103629.

assayProtocol: Stability in CD-1 mouse plasma assessed as half life by LC-MS/MS analysis
Type: ADME, cell-free
measuredMetric: half-life

// half-life lookup, compound = "Cc1nn(-c2cccnc2)c(C)c1-c1cc(N2CC3CCC(C2)O3)nc2c(-c3ccn[nH]3)cnn12.O=C(O)/C=C/C(=O)O" , result: > 2 h

====

studySystem: CYP2B6 (Homo sapiens, UniProt P20813)
Sequence (P20813 whole entry): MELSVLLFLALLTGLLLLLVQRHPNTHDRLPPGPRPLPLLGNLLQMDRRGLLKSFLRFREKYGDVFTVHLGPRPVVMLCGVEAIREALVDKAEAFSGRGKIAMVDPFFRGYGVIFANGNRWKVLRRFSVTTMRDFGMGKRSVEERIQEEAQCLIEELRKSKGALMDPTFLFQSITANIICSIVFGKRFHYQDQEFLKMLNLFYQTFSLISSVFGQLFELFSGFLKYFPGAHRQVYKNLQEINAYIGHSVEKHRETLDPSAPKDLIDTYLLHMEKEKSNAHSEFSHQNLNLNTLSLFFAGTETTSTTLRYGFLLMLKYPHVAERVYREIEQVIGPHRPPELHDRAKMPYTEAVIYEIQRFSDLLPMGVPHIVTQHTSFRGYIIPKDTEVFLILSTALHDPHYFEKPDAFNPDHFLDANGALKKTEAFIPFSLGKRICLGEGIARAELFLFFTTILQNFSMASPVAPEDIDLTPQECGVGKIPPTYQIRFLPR
assayProtocol: Inhibition of recombinant human CYP2B6 assessed as residual activity at 1 uM in the presence of NADPH incubated for 60 mins by LC-MS/MS analysis relative to control
Format: ADME
measurementContext: read-out: Activity
measuredMetric: activity at 1 h, 1 µM
Answer with the number, then the unit.

Lab note: "Cc1nn(-c2cccnc2)c(C)c1-c1cc(N2CC3CCC(C2)O3)nc2c(-c3ccn[nH]3)cnn12.O=C(O)/C=C/C(=O)O" gave activity at 1 h, 1 µM of 94.1%
